Values from PubChem BioAssay (NCI)

- Test system: SF-268 CNS
- assay: NCI-60 one-dose screen, 48 h (100 = growth as untreated, 0 = no growth, -100 = all killed)
- measurementParameters: 10 µM unless noted
About 83,000 compounds went through this panel and 20% of them were active in at least one assay; those are over-represented in the sample as a whole. Activity calls are given as the source filed them. Rule for the calls: active = growth percent below 10; inactive = the rest.
valueKind: growth

For each of the compounds below, state growth.
1. CCN(CC)c1ccc(C2CC(c3cc(OC)c(OC)c(OC)c3)=NN2)cc1 (stereo unspecified)
2. O=C(Nc1ccc(F)cc1)Nc1ccc(Cl)c([N+](=O)[O-])c1
3. CCCCNC(=O)Oc1ccc(/C(=C(/CC)Cc2ccccc2)c2ccc(OCCCN(C)C)cc2)cc1
4. COC(=O)c1ccc(NC(N)=NCC(C)(C)COc2ccc(C(F)(F)F)cc2)nc1
5. CC(=S)Nc1ccccc1

Data returned:
["28.1% (inactive)", "32.7% (inactive)", "77.8% (inactive)", "66.8% (inactive)", "107% (inactive)"]

Data request: I'm curious: which growth was measured for CN(C)CCCOc1c(Br)cc(/C=C/C(=O)N(C)CCc2cc(Br)c(OCCCN(C)C)c(Br)c2)cc1Br tested on SF-268 CNS?
Data returned: 52.5% (inactive)

---

- Test system: MDA-MB-231 breast
- assay: NCI-60 one-dose screen, 48 h (100 = growth as untreated, 0 = no growth, -100 = all killed)
- measurementParameters: 10 µM unless noted
The panel holds about 83,000 compounds, 20% with a hit somewhere; the sample as a whole holds those more often. Activity calls are given as the source filed them. Rule for the calls: active = growth percent below 10; inactive = the rest.
Field: growth. Provide a value for each of the compounds that follow.

Solved cases below.
{"columns": ["compound", "tgt", "growth"],
 "data": [
  ["CCOC(=O)C(C)(CSSCC(C)(NC(=O)c1ccc2ccccc2c1)C(=O)OCC)NC(=O)c1ccc2ccccc2c1 (stereo not given)", "MDA-MB-231 breast", "114% (inactive)"],
  ["CCCCCCCCCCCCCCCCCCNCc1ccc(Cl)cc1", "MDA-MB-231 breast", "-72.9% (active)"],
  ["Cc1cn([C@]2(CF)O[C@H](CO)C2C)c(=O)[nH]c1=O (stereo not given in full)", "MDA-MB-231 breast", "116% (inactive)"],
  ["COc1ccc(N)c(S)c1", "MDA-MB-231 breast", "86.7% (inactive)"],
  ["CCCCCCCCCCCCCCCCNc1ccccc1", "MDA-MB-231 breast", "104% (inactive)"],
  ["CCC1(C(N)=O)CC2C=CC1CC2 (stereo not given)", "MDA-MB-231 breast", "97.8% (inactive)"],
  ["COc1ccc(OCC(O)CN2CCN(c3ccc(Cl)cc3)CC2)cc1 (stereo not given)", "MDA-MB-231 breast", "88.1% (inactive)"],
  ["COc1ccc(-c2nnc(SCC(=O)Nc3ccc(C(=O)/C=C/c4ccccc4)cc3)o2)cc1OC", "MDA-MB-231 breast", "106% (inactive)"],
  ["COc1ccc(C2=NN(C(=O)COc3ccc(Cl)cc3)C(O)(c3cc(F)c(Cl)cc3Cl)C2)cc1 (stereo not given)", "MDA-MB-231 breast", "105% (inactive)"],
  ["O=C(Nc1ccc(Cl)c(Cl)c1)Nc1ccc(Cl)c([N+](=O)[O-])c1", "MDA-MB-231 breast", "-62.6% (active)"]
]}

For each of the compounds below, state growth.
1. COc1cc(/C=C/C(=O)c2ccc(Oc3ncnc4ccccc34)cc2)cc(OC)c1OC
2. C/C(=N/O)c1ccc(NC(=O)Cn2nc(-c3ccc(Cl)cc3)nc2N)cc1

Data returned:
1: 86.5% (inactive); 2: 82.7% (inactive)

For each of the compounds below, state growth.
1. CC(=O)c1cc2c(c(O)c1C)C(=O)C(=O)c1c(O)cccc1-2
2. COc1ccc2c(c1)OC(N)=C(C#N)C2c1ccc(F)cc1 (stereo not given)
3. C=C1C(=O)O[C@H]2[C@H]1CC/C(COC(=O)c1ccc(C#N)cc1)=C\CC[C@@]1(C)O[C@@H]21
4. O=S(=O)(Nc1cccc2cc(OS(=O)(=O)c3ccccc3)ccc12)c1ccccc1
5. O=C(Nc1ccc(-n2cc(-c3ccncc3)c(-c3ccc(O)c(Cl)c3)n2)cc1)Nc1cc(C(F)(F)F)cc(C(F)(F)F)c1
6. COc1ccc(-c2nn(-c3cccc(Cl)c3)cc2-c2cc(-c3ccc(Br)cc3)[nH]c(=O)c2C#N)cc1
7. CN[C@@H](CCCNC(N)=NC/C=C(/C)CCC=C(C)C)C(=O)N(C)[C@@H](CCCNC(N)=NCC=C(C)C)C(=O)N[C@H](C)[C@H](OS(=O)(=O)O)c1ccc(OS(=O)(=O)O)c(COS(=O)(=O)O)c1
8. O=C(Nc1ccc(-n2ccc3c(NC(=O)c4ccccc4)ncnc32)cc1)c1ccc(Cl)c(C(F)(F)F)c1

Data returned:
1. -79.3% (active)
2. 56.7% (inactive)
3. 2.94% (active)
4. 76.4% (inactive)
5. 78.3% (inactive)
6. 60.8% (inactive)
7. 95.5% (inactive)
8. 12.2% (inactive)

For each of the compounds below, state growth.
1. O=C1CCC(c2c(O)cc(O)c3c(=O)c(O)c(-c4ccc(O)c(O)c4)oc23)N1 (stereo not given)
2. O=C(C[n+]1ccccc1Cl)c1ccc2c(c1)CCCC2
3. O=C(O)c1cccc(S(=O)(=O)c2ccccc2)c1
4. COc1ccc(-c2nnc(SCC(=O)Nc3ccc(C(=O)/C=C/c4ccc(OC)c(OC)c4)cc3)o2)cc1
5. COc1ccc(-c2[nH]c3ccccc3c2/C=C(\C#N)S(=O)(=O)c2ccccc2)cc1
6. FC(F)(F)c1cn(CC2CNC2)c2ncnc(Cl)c12

Data returned:
1: 118% (inactive); 2: 99.7% (inactive); 3: 123% (inactive); 4: 96.6% (inactive); 5: 31.5% (inactive); 6: 100% (inactive)

For each of the compounds below, state growth.
1. CCc1c2cc(Cl)ccc2n2cc(Cc3ccccc3)[nH]c(=O)c12
2. O=C(Nc1ccc(-n2ccc3c(NC(=O)c4ccccc4)nccc32)cc1)c1ccc(Cl)c(C(F)(F)F)c1
3. C/C(=N/NC(=O)Cn1c2ccccc2c2ccncc21)c1cccs1
4. O=C(NNC(=O)c1ccc([N+](=O)[O-])cc1)c1ccc([N+](=O)[O-])cc1
5. O=C(Nc1cccc(-n2ccc3c(NC(=O)c4ccccc4)nccc32)c1)Nc1cc(C(F)(F)F)cc(C(F)(F)F)c1

Data returned:
1: 97.4% (inactive); 2: 55.8% (inactive); 3: 97.4% (inactive); 4: 117% (inactive); 5: -10.5% (active)
